- target-under-test: recombinant eIF4E (Homo sapiens (Human))
- Sequence (P06730 whole entry): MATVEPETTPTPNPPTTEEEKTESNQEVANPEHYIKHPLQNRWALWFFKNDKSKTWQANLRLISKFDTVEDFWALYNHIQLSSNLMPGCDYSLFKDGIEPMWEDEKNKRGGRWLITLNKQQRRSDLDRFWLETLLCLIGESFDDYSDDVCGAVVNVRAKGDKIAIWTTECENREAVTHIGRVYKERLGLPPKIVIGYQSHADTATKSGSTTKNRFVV
- run-description: Fluorescence polarization competition assay for eIF4E binding potency
- condition-label: inhibition of eIF4E/EDA-m7GDP-ATTO-550 binding; calculated IC50 values, Table 4B; read-out: IC50
property-label: pIC50
API: returns pIC50 as number; meaning -log10 of concentration in mol/L.

Solved entries:
| molecule | pIC50 |
| --- | --- |
| Cc1nc2ccc(C(F)(F)F)c(C#N)c2c(=O)n1CCOc1ccc(Cl)cc1-c1ccnc2c(C(=O)O)csc12 | 7.10 |
| Cc1cc(-c2cc(Cl)ccc2OCCn2c(C)nc3c(C4COC4)ncc(C#N)c3c2=O)c2scc(C(=O)O)c2n1 | 8.17 |
| Cc1nc2cc(C(F)(F)F)c(N3CCN(C)CC3)c(C#N)c2c(=O)n1CCOc1ccc(Cl)cc1-c1ccnc2cc(Cl)sc12 | 6.97 |
| CCN(c1ncc2nc(C)n(CC#Cc3ccc(Cl)cc3-c3ccnc4c(C(=O)NS(=O)(=O)c5ccncc5)csc34)c(=O)c2c1C#N)C1CCN([C@H]2C[C@H](OC(F)F)C2)CC1 | 7.79 |
| Cc1nc2cnc(C3CCCN(CC(F)F)C3)c(C#N)c2c(=O)n1CC#Cc1ccc(Cl)cc1-c1ccnc2c(C(=O)O)csc12 (stereo not drawn) | 7.87 |
| Cc1nc2cnc(N3CCC34CCN(CC(F)F)CC4)c(C#N)c2c(=O)n1CC#Cc1ccc(Cl)cc1-c1ccnc2c(C(=O)O)csc12 | 7.77 |

Would you mind telling me what pIC50 value was observed for Cc1nc2cc(C(F)(F)F)c(N3CCN(C)CC3)c(C#N)c2c(=O)n1CCOc1ccc(Cl)cc1-c1cc(CF)nc2ccsc12 ?
8.08

Let us now turn to Cc1nc2cnc(N3CCC(N4CC(F)(F)C4)CC3)c(C#N)c2c(=O)n1CC#Cc1ccc(Cl)cc1-c1ccnc2c(C(=O)O)csc12
7.96

Let us now turn to N#Cc1cc(C(F)(F)F)cc2c(Cl)c(Cl)n(CCOc3ccc(Cl)cc3-c3ccnc4c(C(=O)O)csc34)c(=O)c12
7.17

Let us now turn to Cc1nc(N2CC3(CN(C)C3)C2)c(C#N)c2c(=O)n(CCOc3ccc(Cl)cc3-c3ccnc4c(C(=O)O)csc34)c(C)nc12
7.94

Let us now turn to Cc1nc2cnc(N(C)[C@H]3CC[C@@H](N(C)CC(F)F)CC3)c(C#N)c2c(=O)n1CC#Cc1ccc(Cl)cc1-c1ccnc2c(C(=O)O)csc12
7.91

---

- target-under-test: recombinant eIF4E (Homo sapiens (Human))
- run-description: Fluorescence polarization competition assay for eIF4E binding potency
- condition-label: inhibition of eIF4E/EDA-m7GDP-ATTO-550 binding by 50%; Table 4B calculated values; read-out: IC50
property-label: log10 IC50 (log10 of the value in µM)
Form field - Quantity: IC50; Unit: µM; Scale: log10

Solved entries:
| compound | target-under-test | assay-value |
| --- | --- | --- |
| N#Cc1cc2c(=O)n(CCOc3ccc(Cl)cc3-c3cc4c(c(C(=O)O)c3)OCO4)cnc2cn1 | recombinant eIF4E (Homo sapiens (Human)) | 0.32 |
| Cc1cc(-c2cc(Cl)ccc2OCCn2c(C)nc3cc4c(c(C#N)c3c2=O)CN(C)C4)c2scc(C(=O)O)c2n1 | recombinant eIF4E (Homo sapiens (Human)) | -1.71 |
| Cc1nc2cnc(N3CCN(C4CC(F)(F)C4)CC3)c(C#N)c2c(=O)n1CC#Cc1ccc(Cl)cc1-c1ccnc2c(C(=O)O)csc12 | recombinant eIF4E (Homo sapiens (Human)) | -1.61 |
| Cc1nc2cc(C(F)(F)F)cc(S(C)(=O)=O)c2c(=O)n1CCOc1ccc(Cl)cc1-c1ccnc2c(C(=O)O)csc12 | recombinant eIF4E (Homo sapiens (Human)) | -0.02 |
| Cc1cc(-c2cc(Cl)ccc2OCCn2c(C)nc3cc(F)c(-c4ccccc4)c(C#N)c3c2=O)c2scc(C(=O)O)c2n1 | recombinant eIF4E (Homo sapiens (Human)) | -1.71 |
| Cc1nc2cncc(C#N)c2c(=O)n1CCOc1ccc(Cl)cc1-c1cccc(P(=O)(O)OC(C)C)c1 [150FB] | recombinant eIF4E (Homo sapiens (Human)) | -0.84 |
| Cc1nc2cc(C(F)(F)F)c(N3CCN(C)CC3)nc2c(=O)n1CC#Cc1ccc(Cl)cc1-c1ccnc2c(C(=O)O)csc12 | recombinant eIF4E (Homo sapiens (Human)) | -2.21 |
| Cc1cc(-c2cc(Cl)ccc2OCCn2c(C)nc3c(C)ncc(C#N)c3c2=O)c2scc(C(=O)O)c2n1 | recombinant eIF4E (Homo sapiens (Human)) | -1.60 |
| CCc1cc(-c2cc(Cl)ccc2OCCn2c(C)nc3cc(C(F)(F)F)c(-c4ccccn4)c(C#N)c3c2=O)c2scc(C(=O)O)c2n1 | recombinant eIF4E (Homo sapiens (Human)) | -1.72 |
| Cc1cc(-c2cc(Cl)ccc2OCCn2c(C)nc3cc(C(F)(F)F)cc(C#N)c3c2=O)c2scc(C(=O)NS(C)(=O)=O)c2n1 | recombinant eIF4E (Homo sapiens (Human)) | -1.53 |

Would you mind telling me what log10 IC50 value was observed for Cc1nc2cc(Cl)c(C(F)F)c(C#N)c2c(=O)n1CCOc1ccc(Cl)cc1-c1ccnc2c(C(=O)O)csc12 ?
-1.70

Let us now turn to Cc1nc2cc(Cl)c(S(C)(=O)=O)c(C#N)c2c(=O)n1CCOc1ccc(Cl)cc1-c1ccnc2c(C(=O)O)csc12
-1.03
